Overview of reported activity at 10 µM across a group of compounds:
target_system: α7 nAChR (Homo sapiens)
Construct: expressed in transfected cells; host or cells: Xenopus oocytes (cRNA injection)
Sequence (P36544 23-502): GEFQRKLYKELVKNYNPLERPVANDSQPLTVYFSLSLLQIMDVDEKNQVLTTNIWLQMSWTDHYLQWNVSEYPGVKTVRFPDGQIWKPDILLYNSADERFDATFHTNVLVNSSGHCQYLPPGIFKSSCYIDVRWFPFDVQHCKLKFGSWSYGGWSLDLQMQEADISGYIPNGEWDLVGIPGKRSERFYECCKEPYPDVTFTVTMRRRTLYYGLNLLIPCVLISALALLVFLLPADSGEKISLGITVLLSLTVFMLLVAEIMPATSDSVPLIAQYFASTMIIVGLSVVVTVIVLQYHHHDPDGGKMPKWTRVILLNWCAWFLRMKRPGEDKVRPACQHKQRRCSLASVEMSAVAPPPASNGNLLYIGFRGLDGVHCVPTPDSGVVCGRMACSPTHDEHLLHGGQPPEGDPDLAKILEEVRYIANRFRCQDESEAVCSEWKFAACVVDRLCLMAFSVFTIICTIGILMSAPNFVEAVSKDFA
assay_name: α7 nAChR positive allosteric modulator activity assay, voltage clamp in Xenopus oocytes with 100 μM ACh
Format: cell-based
test_parameters: at 10 μM compound; current induced by 100 μM ACh; Xenopus oocytes expressing α7 nAChR; read-out: Max Mod (%, at 10 μM)
assay_endpoint: activity at 10 µM (%)

>>> measured_value("Cc1nc(Nc2nc3ncn(-c4c(C)cccc4Cl)c(=O)c3s2)cc(N2CCN(CCO)CC2)n1 [JWX-A0728]")
110
>>> measured_value("Cc1cccc(Cl)c1-n1cnc2nc(SCc3ccc(C(F)(F)F)cc3)sc2c1=O [LYH150409-4CF3]")
140
>>> measured_value("Cc1nc(Cl)cc(Nc2nc3ncn(-c4c(C)cccc4Cl)c(=O)c3s2)n1 [LD486]")
320

Recorded values, source patent US10450326B2.
